A collection of compounds and their measured half-life
assay: Mouse liver microsomal stability of compound in microsomal protein, PBS buffer pH 7.4, NADPH, glucose-6-phosphate and glucose-6-phosphate dehydrogenase media. Aliquotes were taken at 5 time points and after stopping the reaction, supernatants were analyzed using HPLC coupled with a tandem mass spectrometer. The elimination constant, half-life, and intrinsic clearance are determined as results using linear regression analysis.; assay type: ADME, microsomes, Microsome; conditions: liver microsomes
Give your result in h as a bare value.

Answered cases to consult:
{"smiles_str": "O=C(Nc1ccc2c(c1)CNC2)c1cc(Cl)cc2ccncc12", "half-life / h": 1.14}
{"smiles_str": "O=C(NCC(F)F)[C@H](Nc1ccc2c(c1)CNC2)c1cc(Cl)cc2c1CCC2", "half-life / h": 0.882}
{"smiles_str": "O=C(Nc1ccc2c(c1)CNC2)c1cc(Cl)cc2[nH]ncc12", "half-life / h": 0.115}
{"smiles_str": "CCCC[C@@H](NC(=O)OC(C)(C)C)C(=O)N[C@@H](C(=O)NCc1ccc(CN)cc1)c1ccc(OCc2ccccc2)cc1", "half-life / h": 3.11}
{"smiles_str": "O=C(Nc1cc(Br)c2c(c1)CNC2)c1cc(F)cc2[nH]ncc12", "half-life / h": 0.192}

Q. Which half-life is listed for "CNC(=O)c1cc(Cl)c(F)cc1NS(=O)(=O)c1ccc(Oc2ccccc2Cl)cc1" ?
A. 0.506

Q. Which half-life is listed for "Cc1cc([C@H](Nc2ccc3c(c2)CNC3)C(=O)NCC(F)F)cc(C(F)(F)F)c1" ?
A. 2.49

====

assay: Human liver microsomal stability of compound in microsomal protein, PBS buffer pH 7.4, NADPH, glucose-6-phosphate and glucose-6-phosphate dehydrogenase media. Aliquotes were taken at 5 time points and after stopping the reaction, supernatants were analyzed using HPLC coupled with a tandem mass spectrometer. The elimination constant, half-life, and intrinsic clearance are determined as results using linear regression analysis.; assay type: ADME, microsomes, Microsome; details: microsomes
observation_type: Remaining (without cofactor) (%)
Give your result in % as a bare value.

Q. Which Remaining (without cofactor) is listed for "NCc1cccc(NC(=O)[C@@H](NC(=O)OCc2ccccc2)C(C2CCC2)C2CCC2)c1" ?
A. 94.537

Q. Which Remaining (without cofactor) is listed for "NCc1cc(C(=O)O)cc([C@@H]2C[C@H]2c2cc(Cl)cc(NC(=O)OCc3ccccc3)c2)c1" ?
A. 102.436

Q. Which Remaining (without cofactor) is listed for "N#CCCNC(=O)[C@H](Nc1ccc2c(c1)CNC2)c1cc(Cl)cc(C2CC2)c1" ?
A. 113.364

Q. Which Remaining (without cofactor) is listed for "O=C(Nc1ccc2c(c1)CNC2)c1cc(Cl)cc2ccncc12" ?
A. 101.944

Q. Which Remaining (without cofactor) is listed for "CNC(=O)[C@H](Nc1ccc2c(c1)CNC2)c1cc(Cl)cc2[nH]c(-c3ccccc3)nc12" ?
A. 107.659

Q. Which Remaining (without cofactor) is listed for "CNC(=O)[C@H](Nc1cc(CN)cc(-c2nn[nH]n2)c1)c1cc(Cl)cc(C2CC2)c1" ?
A. 101.856

Q. Which Remaining (without cofactor) is listed for "CCOc1cccc(-c2ccc(S(=O)(=O)Nc3ccc(Cl)cc3C(=O)O)cc2)c1" ?
A. 93.83

====

assay: Mouse liver microsomal stability of compound in microsomal protein, PBS buffer pH 7.4, NADPH, glucose-6-phosphate and glucose-6-phosphate dehydrogenase media. Aliquotes were taken at 5 time points and after stopping the reaction, supernatants were analyzed using HPLC coupled with a tandem mass spectrometer. The elimination constant, half-life, and intrinsic clearance are determined as results using linear regression analysis.; type: ADME, microsomes, Microsome; conditions: microsomes
A collection of compounds and their measured Remaining
Give your result in % as a bare value.

{"smiles_str": "CC(C)NC(=O)[C@H](Nc1ccc2c(c1)CNC2)c1cc(Cl)cc2[nH]c(-c3ccccc3)nc12", "observation_type": "Remaining", "unit_label": "%", "value": 84}
{"smiles_str": "CNC(=O)[C@H](Nc1ccc2c(c1)CNC2)c1cc(Cl)cc2[nH]c(-c3ccccc3)nc12", "observation_type": "Remaining", "unit_label": "%", "value": 95.033}
{"smiles_str": "O=C(O)c1cc(Cl)ccc1NS(=O)(=O)c1ccc(Oc2ccccc2Cl)cc1", "observation_type": "Remaining", "unit_label": "%", "value": 79.49}
{"smiles_str": "O=C1Cc2c(cccc2C(=O)Nc2ccc3c(c2)CNC3)N1", "observation_type": "Remaining", "unit_label": "%", "value": 102.559}

Query compound follows.
Q. Which Remaining is listed for "Cc1c(C(=O)Nc2cc(-c3cccnc3)ccn2)cc(C2CC2)n1C" ?
A. 0.854

====

test: Mouse liver microsomal stability of compound in microsomal protein, PBS buffer pH 7.4, NADPH, glucose-6-phosphate and glucose-6-phosphate dehydrogenase media. Aliquotes were taken at 5 time points and after stopping the reaction, supernatants were analyzed using HPLC coupled with a tandem mass spectrometer. The elimination constant, half-life, and intrinsic clearance are determined as results using linear regression analysis.; assay type: ADME, microsomes, Microsome; details: microsomes
observation_type: Remaining (%)
Give your result in % as a bare value.

Answered cases to consult:
{"smiles_str": "O=C(NCCCF)[C@H](Nc1ccc2c(c1)CNC2)c1cc(Cl)cc(C2CC2)c1", "value": 76.547}
{"smiles_str": "O=C(Nc1ccc2c(c1)CNC2)c1cc(Cl)cc2cn[nH]c12", "value": 41.728}
{"smiles_str": "NCc1cccc(CNC(=O)[C@@H](NC(=O)OCc2ccccc2)c2ccc(OCc3ccccc3)cc2)c1", "value": 103.125}

Query compound follows.
Q. Which Remaining is listed for "O=C(Nc1ccc2c(c1)CNC2)c1cc(F)cc2[nH]c(-c3ccc(F)cc3)nc12" ?
A. 54.776

====

A collection of compounds and their measured half-life
test: Human liver microsomal stability of compound in microsomal protein, PBS buffer pH 7.4, NADPH, glucose-6-phosphate and glucose-6-phosphate dehydrogenase media. Aliquotes were taken at 5 time points and after stopping the reaction, supernatants were analyzed using HPLC coupled with a tandem mass spectrometer. The elimination constant, half-life, and intrinsic clearance are determined as results using linear regression analysis.; type: ADME, microsomes, Microsome; settings: liver microsomes

Answered cases to consult:
{"smiles_str": "C=CC[C@H](Nc1ccc(-c2nn[nH]n2)cc1)c1cc(Cl)cc(NC(=O)OCc2ccccc2)c1", "value": "2.77 h"}
{"smiles_str": "O=C(NCCCF)[C@H](Nc1ccc2c(c1)CNC2)c1cc(Cl)cc(C2CC2)c1", "value": "1.75 h"}
{"smiles_str": "N#C[C@H](Nc1cccc(-c2nn[nH]n2)c1)c1cc(Cl)cc(NC(=O)OCc2ccccc2)c1", "value": "2.04 h"}
{"smiles_str": "Cn1ncc2c(C(=O)Nc3ccc4c(c3)CNC4)cc(Cl)cc21", "value": "> 2.89 h"}
{"smiles_str": "N#Cc1cc2c(cc1NC(=O)c1cc(F)cc3[nH]ncc13)CNC2", "value": "> 2.89 h"}

Query compound follows.
Q. Which half-life is listed for "O=C(Nc1cc2c(cc1C1CC1)CNC2)c1cc(F)cc2[nH]ncc12" ?
A. > 2.89 h

====

experiment: Mouse liver microsomal stability of compound in microsomal protein, PBS buffer pH 7.4, NADPH, glucose-6-phosphate and glucose-6-phosphate dehydrogenase media. Aliquotes were taken at 5 time points and after stopping the reaction, supernatants were analyzed using HPLC coupled with a tandem mass spectrometer. The elimination constant, half-life, and intrinsic clearance are determined as results using linear regression analysis.; assay type: ADME, microsomes, Microsome; details: liver microsomes
observation_type: log10 half-life (log10 of the value in h)
Response schema: value (number) is log10 of half-life in units of h.

Answered cases to consult:
{"smiles_str": "O=C(Nc1cc2c(c(C3=CCS(=O)(=O)CC3)c1)CNC2)c1cc(F)cc2[nH]ncc12", "log10 half-life": -0.54}
{"smiles_str": "O=C(Nc1ccc2c(c1)CNC2)c1cccc2[nH]c(C(F)(F)F)cc12", "log10 half-life": 0.34}
{"smiles_str": "O=C(Nc1ccc2c(c1)CNC2)c1cc(Cl)cc2cn[nH]c12", "log10 half-life": -0.29}

Query compound follows.
Q. Which log10 half-life is listed for "Cn1cc2c(C(=O)Nc3ccc4c(c3)CNC4)cc(F)cc2n1" ?
A. 0.18

====

A collection of compounds and their measured Remaining
assay: Human liver microsomal stability of compound in microsomal protein, PBS buffer pH 7.4, NADPH, glucose-6-phosphate and glucose-6-phosphate dehydrogenase media. Aliquotes were taken at 5 time points and after stopping the reaction, supernatants were analyzed using HPLC coupled with a tandem mass spectrometer. The elimination constant, half-life, and intrinsic clearance are determined as results using linear regression analysis.; assay type: ADME, microsomes, Microsome; details: microsomes
Enter the number, and then the unit.

Answered cases to consult:
{"smiles_str": "O=C(Nc1ccc2c(c1)CNC2)c1ccc2[nH]cc(C3CCNCC3)c2c1", "Remaining": "86.755%"}
{"smiles_str": "COc1cc(Cc2c(-c3ccc(F)cc3)noc2C)nc(N2CCNCC2)n1", "Remaining": "82%"}
{"smiles_str": "Cn1c(=O)[nH]c2c(C(=O)Nc3ccc4c(c3)CNC4)cc(Br)cc21", "Remaining": "97.872%"}
{"smiles_str": "CNC(=O)[C@H](Nc1cccc(-c2nn[nH]n2)c1)c1cc(Cl)cc2[nH]ncc12", "Remaining": "97.01%"}
{"smiles_str": "Cc1cc([C@H](Nc2ccc3c(c2)CNC3)C(=O)NCC(F)F)cc(C(F)(F)F)c1", "Remaining": "89.032%"}

Q. Which Remaining is listed for "COc1cc(Cl)cc([C@H](Nc2ccc3c(c2)CNC3)C(=O)NCC(F)F)c1" ?
A. 91.954%

Q. Which Remaining is listed for "CC(C)CNC(=O)c1cc(Cl)c(F)cc1NS(=O)(=O)c1ccc(Oc2ccccc2Cl)cc1" ?
A. 4%
